Reference source: paper PMC8443859

# System: S1 domain of SARS-CoV-2 spike protein (Severe acute respiratory syndrome coronavirus 2, UniProt P0DTC2)
# Test details: biochemical
# Format: binding
Entries and their measured c (c value) follow.

Molecule: C[C@@H]1CC[C@@]2(OC1)O[C@H]1C[C@H]3[C@@H]4CC=C5C[C@@H](O[C@@H]6O[C@H](CO)[C@@H](O[C@@H]7O[C@@H](C)[C@H](O)[C@@H](O)[C@H]7O)[C@H](O)[C@H]6O[C@@H]6O[C@@H](C)[C@H](O)[C@@H](O)[C@H]6O)CC[C@]5(C)[C@H]4CC[C@]3(C)[C@H]1[C@@H]2C [Dioscin]
c (c value): 117.3
//
Molecule: CC1=C(O)C(=O)C=C2C1=CC=C1[C@@]2(C)CC[C@@]2(C)[C@@H]3C[C@](C)(C(=O)O)CC[C@]3(C)CC[C@]12C [Celastrol]
c (c value): 8.2
//
Molecule: O=C1C(C2(C3(C4=Nc5ccccc5C4=O)Nc4ccccc4C3=O)Nc3ccccc3C2=O)=Nc2ccccc21 (stereo not shown) [Cephalinone D]
c (c value): 0.8
//
Molecule: O=c1cc(-c2ccc(O)c(-c3c(O)cc(O)c4c(=O)cc(-c5ccc(O)cc5)oc34)c2)oc2cc(O)cc(O)c12 [Amentoflavone]
c (c value): 6.4
